molecular target: TEAD2 YAP50-100 (Homo sapiens, UniProt Q15562); assay: TEAD2-YAP HTRF (TR-FRET) protein-protein interaction assay; format: binding; settings: TEAD2, YAP peptide 50-100, HTRF
Sequence (Q15562 217-447): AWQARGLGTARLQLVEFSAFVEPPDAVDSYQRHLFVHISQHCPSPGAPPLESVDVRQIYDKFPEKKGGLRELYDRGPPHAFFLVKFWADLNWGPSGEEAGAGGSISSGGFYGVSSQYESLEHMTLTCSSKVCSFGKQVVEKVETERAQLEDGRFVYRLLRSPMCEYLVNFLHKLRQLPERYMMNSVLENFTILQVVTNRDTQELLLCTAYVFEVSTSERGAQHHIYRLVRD
Under this convention, Satisfied denotes TEAD2 YAP50-100 HTRF combined: Max % Inhibition strictly below 70% and Not satisfied denotes TEAD2 YAP50-100 HTRF combined: Max % Inhibition at or above 70%.

**Query** Does the reported TEAD2 YAP50-100 HTRF combined: Max % Inhibition of the following molecule sit strictly below 70%? Cc1nccnc1-c1nn2c(=O)cc(-c3ccc(CC(C)(C)C)cc3)[nH]c2c1C(=O)N1C[C@H](CF)[C@@H]1C (racemic) [Compound 73]
**Result** Satisfied

**Query** Does the reported TEAD2 YAP50-100 HTRF combined: Max % Inhibition of the following molecule sit strictly below 70%? COc1ccnc(-c2nn3c(=O)cc(-c4ccc(C5CCCCC5)cc4)[nH]c3c2C(=O)N2CC(CF)C2)n1 [Compound 14]
**Result** Satisfied

**Query** Does the reported TEAD2 YAP50-100 HTRF combined: Max % Inhibition of the following molecule sit strictly below 70%? C[C@@H]1[C@H](CF)CN1C(=O)c1c(-c2ncccn2)nn2c(=O)cc(-c3ccc(C4CCCCC4)cc3)[nH]c12 (single isomer, unassigned) [Isomer A, Example 40]
**Result** Not satisfied

**Query** Does the reported TEAD2 YAP50-100 HTRF combined: Max % Inhibition of the following molecule sit strictly below 70%? C[C@H]1[C@@H](CF)CN1C(=O)c1c(-c2cnccn2)nn2c(=O)cc(-c3ccc(C4CCCCC4)cc3)[nH]c12 (single isomer, unassigned) [Isomer A, Example 39]
**Result** Not satisfied

----------
biological target: TEAD2 TAZ (amino acids 13-57) (Homo sapiens); assay: TEAD2-TAZ HTRF (TR-FRET) protein-protein interaction assay; type: binding; conditions: TEAD2, TAZ peptide, HTRF
Sequence (Q15562 217-447): as above
Under this convention, Satisfied denotes TEAD2 TAZ HTRF combined: Max % Inhibition strictly below 60% and Not satisfied denotes TEAD2 TAZ HTRF combined: Max % Inhibition at or above 60%.

**Query** Does the reported TEAD2 TAZ HTRF combined: Max % Inhibition of the following compound sit strictly below 60%? CC(C)(C)c1ccc(COc2cc(=O)n3nc(-c4cnccn4)c(C(=O)N4CC(CF)C4)c3[nH]2)cc1
**Result** Not satisfied

**Query** Does the reported TEAD2 TAZ HTRF combined: Max % Inhibition of the following compound sit strictly below 60%? O=C(c1c(C2CNCCO2)nn2c(=O)cc(-c3ccc(C4CCCCC4)cc3)[nH]c12)N1CC(CF)C1 (single isomer, unassigned) [Enantiomer B, Example 63]
**Result** Not satisfied

**Query** Does the reported TEAD2 TAZ HTRF combined: Max % Inhibition of the following compound sit strictly below 60%? CCCCCCCCCc1cc(=O)n2nc(-c3nccnc3C)c(C(=O)N3C[C@H](CF)[C@@H]3C)c2[nH]1
**Result** Not satisfied

**Query** Does the reported TEAD2 TAZ HTRF combined: Max % Inhibition of the following compound sit strictly below 60%? C[C@H]1[C@@H](CF)CN1C(=O)c1c(-c2cnccn2)nn2c(=O)cc(-c3ccc(CC4CCCC4)cc3)[nH]c12 (single isomer, unassigned) [Isomer A, Example 44]
**Result** Satisfied

**Query** Does the reported TEAD2 TAZ HTRF combined: Max % Inhibition of the following compound sit strictly below 60%? O=C(c1c(-c2ncccn2)nn2c(=O)cc(-c3ccc(CC4CCCC4)cc3)[nH]c12)N1CC(CF)C1
**Result** Not satisfied
